Sourced from the supplement of paper PMC9170038

System: MS2 coat protein
assay protocol: apparent KD of MS2 coat protein; designed switch direction (-1 OFF switch, 1 ON switch): -1; higher = weaker reporter binding
applied conditions: Eterna round: R95; input ligand: FMN 200 uM
measured endpoint: apparent KD of MS2 coat protein

AGUAGUAGUAUCCGAUCUUACAUGAGGAUCACCCAUGUUUCUAGACGUGCACGCGAUGCUCGUCAGACUACCAGAUG [salish99_TOv1_r3_053] (puzzle: Sensor v3, turn-off variant 1) ... 128 nM

Can you look up the measured apparent KD of MS2 coat protein of AUAUACAAGCAAAGAUCCUACAUGAGGAUCACCCAUGUGUUCGUCUUAUAAAGUACUAUCACGAAAGUGAUAGUACA [Mat - Sensor v3 - turn-off var 1 - Eli Mod - D80] (puzzle: Sensor v3, turn-off variant 1) for me?
161 nM

* * *

System: K4 kissing-loop RNA reporter
assay protocol: apparent KD of K4 kissing-loop reporter; higher = weaker reporter binding
applied conditions: Eterna round: R107; input ligand: FMN 200 uM
measured endpoint: apparent KD of K4 kissing-loop reporter (nM)
Form entry: value (nM) — number only.

Solved cases (5 shown):
CAUUCACGGCGAGUCGAAGUGAUGUUUCGGCGAGGACCGGUACGGCCGCCACUCGGAUAAAUAUAGCUUAUCACAUACACUUUCG [theeternabot_exclusion_KL_Trp_A_27] ... 159
AAGUGAUGUUGUAGUGAUGUUGUGAUGUUGCAGGAUAUAUAGUGAUGUAGAAGGGUAUGUACUUAUUUGUUUUUUGAGUUAUGUU [zzazzrmullin] ... 65.9
CCGUAUGUCCACUAUUGAGUGAUGUUCAAGCGAGGACCGGUACGGCCGCCACUCGCGUUACCCACCACGUGUCGCCGCACUUACC [theeternabot_exclusion_KL_Trp_A_42] ... 203
AAAUAAAAGGCGGCCGCCACUGAACGCCUCCGCGUGGGUAUAUAGUGAUGUUAUAUGGCCGCCUUCAGGACCGGGCCAAAUAAAA [AstrosSSTryB#1] ... 458
UGGAUAUAGUGAUGUUAUAUAGAGAUGGAUACCAGCUAAGAGAAUAGCCCUUGGCAGCCGAAAGAAGUAUCAUUAGAGAAGAAUG [ExTheophyl.Ae] ... 294

Can you look up the measured apparent KD of K4 kissing-loop reporter of GGAGGAGAAUAUGAUACCAGCAGAGAGAGAGAGGAAGUAUAGUGAUGUUAUAUGUGAGAAUGCCCUUGGCAGCAUAAGAAGAAGG [whbob_SS_Theo_B_sa87] for me?
140

* * *

Tested on: MS2 coat protein
assay protocol: apparent KD of MS2 coat protein; designed switch direction (-1 OFF switch, 1 ON switch): -1; higher = weaker reporter binding
applied conditions: input ligand: FMN 200 uM
measured endpoint: apparent KD of MS2 coat protein (nM)
Form entry: value (nM) — number only.

Solved cases (3 shown):
AGCUAGGCAGGAUAUACAUGAGGAUCACCCAUGUAAAUUUUUCGUUUAACUUGAAUGUGUAGAAGGGCCAUAAA [Ex3 #51] (Eterna round: R97, puzzle: Exclusion 3) ... 23.9
CUUUCGUCUGUGGGUGGUGACAUGAGGAUCACCCAUGUUUUGCUCGUUUUGUCUUGGGCUCGGCGCCCGGGUUCGGG [-25.2, -46.4, A 8%] (Eterna round: R97, puzzle: Sensor, turn-off variant 1) ... 467
UACCUGAGGCAAAGCUUUAGGUAAACAUGAGGAUCACCCAUGUAGGAUAUGGUAGGCUUUGCUUACCAGAAGGACAUGUUAAUU [Mat - Exclusion NG 3 - Mod of JL - D33] (Eterna round: R96, puzzle: Exclusion NG 3) ... 215

Give the reported apparent KD of MS2 coat protein for AACAGUCUAGAGGAUAUGUGGGAUUAAUAUCUUGCAGAAGGCUGGACAUGAGGAUCACCCAUGUAAAUACUACC [Omei Ex6 A15] (Eterna round: R97, puzzle: Exclusion 6) (system: MS2 coat protein).
80.8

Give the reported apparent KD of MS2 coat protein for GCACGGAGUGUAGGAUAUCUGUGCGAUUAGCUCAGAGAAGGACACAUGAGGAUCACCCAUGUGUAACUCAAUACUCAUCCGUGC [Eli exng1 - 070] (Eterna round: R96, puzzle: Exclusion NG 1) (system: MS2 coat protein).
8.06

* * *

System: MS2 coat protein
assay protocol: apparent KD of MS2 coat protein; higher = weaker reporter binding
applied conditions: Eterna round: R107; input ligand: theophylline 20 uM
Recorded apparent KD of MS2 coat protein values for a group of sequences are listed next.
Form entry: value (nM) — number only.

Solved cases (2 shown):
AUAGUCUUGAGUGAUACCAGACUACAUGAGGAUCACCCAUGUUUCUUUUGGUUAUCAUGUGUCCCUUGGCAGCACGCAUGUAUAG [JR_ExcTheophyB_Sub014] ... 28
UUGUUGUUUGGAAGGAGCGUGUAUGAUUAAGAACAUGAGGAUCACCCAUGUUGUAGGGUAGCACAGGUAGGUCGCCGGGUGGUGG [11.V] ... 36.8

Give the reported apparent KD of MS2 coat protein for ACCUGCGUUUGUUUCUUUCUGACGCAGGUUCGAGGACCGGUACGGCCGCCACUCGGACAUGAGGAUCACCCAUGUUUGAAAUGGG [#01 Exclusion Tryptophan A] (system: MS2 coat protein).
248

Give the reported apparent KD of MS2 coat protein for CCUAUGCAGUCGGCCGCCACUGUACAUGAGGAUCACCCAUGUUCUAAUAUAAUAAGAACUGAAAUCAGGACCGGGACUGUAUAGG [Ex Tryptophan B 2] (system: MS2 coat protein).
27.8

Give the reported apparent KD of MS2 coat protein for CUCCCGUGGUCGGCCGCCACUGGAGGCCUUGCGCGACAUGAGGAUCACCCAUGUGUGCCCGGCGUCAGGACCGGGAUCGCGUGAG [#1 Same State - Tryptophan B Attempt #12 (HarryS)] (system: MS2 coat protein).
18.7

Give the reported apparent KD of MS2 coat protein for GGAUAGGACACGGCCGCCACUAGCUAGGAUACUAGCAACAUUUCCUCACAAGAGGAUCACCCUUGUAGGACCGGGUGUCCUAUCG (system: MS2 coat protein).
115

* * *

Test system: K4 kissing-loop RNA reporter;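 note: bound reporter read as fluorescence of individual clusters on recovered sequencing chips by microscopy, with normalized cluster intensities fitted with a binding model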
assay protocol: apparent KD of K4 kissing-loop reporter; higher = weaker reporter binding
applied conditions: Eterna round: R107; input ligand: tryptophan 2.4 mM
Output yes for apparent KD of K4 kissing-loop reporter not less than 200 nM; output no otherwise.

Previously resolved entries follow.
GCCUAGGCUCGAAAGAGCCUAGGCUUGUCUCAGGAUAUCUGGAAACAGAGAAGGGAGCUACUAGUGAUGUUAGGAAUUCCCUAAG ... no
GCUCAUCCGGCAGGAUAUAGGCAGGUAGAGUGAUGUUCGAACUGCAGUUAUCCAUCCUUCUACCUACUAGAAGGGCCGGAUGAGC ... yes
GCAGGCGUAAAAGGAUAUCAGGCUCUCUAGACACGAGUGAUGUUUGUGUAGGUAACGUAAUAGGCAUGAGAAGGUUUCACUUAAA [theeternabot_sameState_KL_FMN_B_49] ... yes
UUAGGAGUGGGAGGAUAUCCUAAUAUGGGUGAUGUUAGCGAUGUUGAAAGUGUAGUGAUGUUGUGCGGAGAAGGUCCAGUGUUGA [BDazzled - #13 - Exc. FMN B] ... no
GCUAUAGUGUUAGAUACCAGUAUCCUGCAAAGCCAUCAAAUGCAGUGAUGUUGCAUAAACUACCCUUGGCAGCUAAUUGGGCUCU [theeternabot_exclusion_KL_Theo_B_49] ... no

Now examine the next entry.
Confirm if apparent KD of K4 kissing-loop reporter reported for the sequence AGACUACCACACUGUCAAUAGACAGUGGACUAGGAUAUGCUGAUAAGCAGAAGGAGUGAUGUUCCUCGGUAGUCAAUAAAAUAAU [FmnAX 13 G28+C67] is 200 nM or above.
yes

* * *

Tested on: MS2 coat protein
assay protocol: apparent KD of MS2 coat protein; higher = weaker reporter binding
applied conditions: Eterna round: R107; input ligand: theophylline 20 uM
Output T for apparent KD of MS2 coat protein not less than 100 nM; output F otherwise.

Previously resolved entries follow.
GGCACAUAGUCGGCCGCCACUAGAAUAUAGUGGAAUAACAUGAGGAUCACCCAUGUAUUUGGGACUAGGACCGGGACUAUGUGCC [Bear] ... F
GGCCCACAUGAGGAUCACCCAUGUGUGGAUACCAGCCUCAUUUAGGGCCCUUGGCAGCCAGAUAGUAACAAGUCCGAAACACAGA [theeternabot_sameState_MS2_Theo_A_24] ... T
AUUCCAUUGGUGCAGUUGUUAAAUGGCGAUACCAGCGUGGAAACACGCCCUUGGCAGCGCCAAAACAUGAGGAUCACCCAUGUUA [Havirov] ... F

Confirm if apparent KD of MS2 coat protein reported for the sequence AGAGUCAGACAAAAGUCUGGCUCAGCCGAAGGAGCGUCCGAAAGGACAGGUAGGUCGCGGUUACUUGAGGAUCACCCAAGUUCCU [ArgAS 26 #OpenEnded #AlternativeMS2] is 100 nM or above.
T

Confirm if apparent KD of MS2 coat protein reported for the sequence GUAGGUCUCAUGGGUGGACCUACACUGGAAGGAGCGAGCGAAAGCUCAGGUAGGUCGCCAGAAACAUGAGGAUCACCCAUGUAAU [(A)''-(M)'-(A)'-(Arg1)-(Arg2)-(M1)-(M2)_Design1] is 100 nM or above.
T

Confirm if apparent KD of MS2 coat protein reported for the sequence CGCAACCCUAAGGGAUUGUGGUUAUUAGAUACCAGUAUGAUGCAAUACCCUUGGCAGCUAAUACAUGAGGAUCACCCAUGUUGCG [Th A Ex t2] is 100 nM or above.
F

Confirm if apparent KD of MS2 coat protein reported for the sequence GCACAUGAGGAUCACCCAUGUACAACUGAAGGAGCGAGACAGAACUCAGGUAGGUCGCAGAAUGCACAAUAGCAUACGACAUGGG [Exclusion Arginine A GF20] is 100 nM or above.
F

Confirm if apparent KD of MS2 coat protein reported for the sequence AUAACAUGAGGAUCACCCAUGUAAGCAGAUACCAGCUAGGAAACUAGCCCUUGGCAGCUGCAAGGUGAUCCUAGGUAUCUGCAAU [(M1)-(M2)-(T1)-(T2)-(M)'-(T)'_Design6] is 100 nM or above.
F

Confirm if apparent KD of MS2 coat protein reported for the sequence ACAUGAGGAUCACCCAUGUAAUUGCCGGAAGGAGCGUCAUUAAGGACAGGUAGGUCGCUGGUAGGGUCGUCGGUUACGGCGGCCA [SSArg A #10] is 100 nM or above.
F

Confirm if apparent KD of MS2 coat protein reported for the sequence AUCGUACCUGAUGAUACCAGCAUGUGCUCGUAACAUGAGGAUCACCCAUGUGAUCAGUGAUGCCCUUGGCAGCAUGAUCGGUGCA [Same State - Theophylline B (Freestyle 18)] is 100 nM or above.
T

Confirm if apparent KD of MS2 coat protein reported for the sequence UGUAACAUGAGGAUCACCCAUGUGAGUGAUACCAGAUUAGUAGUAGUCCCUUGGCAGCAUAUUGGGCGAGUGUAUAGUCUAUGCG [Same State - Theophylline A (Freestyle 10)] is 100 nM or above.
T
